- System: serotonin 5HT2 -receptors
- assayMethodText: Combined ATN test in rats: tryptamine (TRY) challenge, central and peripheral serotonin antagonism
- Assay type: in vivo
- reportedConditions: subcutaneous pretreatment, dose protecting 50% of animals, peripheral serotonin antagonistic activity
Parameter TRY hyperaemia ED50: see the listing below.
Please state the figure in mg/kg; there is no need to write the unit.

Cc1nc2sccn2c(=O)c1CCN1CC[C@H]2Nc3ccc(Cl)cc3[C@@H]2C1 (relative stereo) [Compound 26] : 0.005

Could you now consider this next compound?
Query block: Name the recorded TRY hyperaemia ED50 for Cc1nc2n(c(=O)c1CCN1CC[C@@H]3[C@@H](C1)c1cc(F)ccc1N3c1ccc(F)cc1)CCCC2 (relative stereo) [Compound 25] .
Result block: 0.02

---

- Tested on: serotonin 5HT2 -receptors
- assayMethodText: Combined ATN test in rats: tryptamine (TRY) challenge, central and peripheral serotonin antagonism
- Format: in vivo
- reportedConditions: subcutaneous pretreatment, dose protecting 50% of animals, peripheral serotonin antagonistic activity
Parameter TRY hyperaemia ED50: see the listing below.

The cases that follow already have their TRY hyperaemia ED50 on record.
Cc1nc2ccccn2c(=O)c1CCN1CC[C@H]2Nc3ccc(Cl)cc3[C@@H]2C1 (relative stereo) : 0.005 mg/kg
COc1ccc2c(c1)[C@@H]1CN(CCc3c(C)nc4ccccn4c3=O)CC[C@H]1N2 (relative stereo) : ≤ 0.16 mg/kg
Cc1nc2sccn2c(=O)c1CCN1CC[C@H]2Nc3ccccc3[C@@H]2C1 (racemic) : ≤ 0.04 mg/kg

Query block: Lab note: need TRY hyperaemia ED50 for Cc1nc2scc(C)n2c(=O)c1CCN1CC[C@H]2Nc3ccccc3[C@@H]2C1 (relative stereo) on serotonin 5HT2 -receptors, anyone have it?
Result block: 0.02 mg/kg

Query block: Now give it for Cc1nc2sccn2c(=O)c1CCN1CC[C@H]2[C@H](C1)c1cc(F)ccc1N2c1ccc(F)cc1 (relative stereo) too.
Result block: 0.08 mg/kg

Query block: Now give it for COc1ccc2c(c1)[C@@H]1CN(CCc3c(C)nc4sccn4c3=O)CC[C@H]1N2 (relative stereo) too.
Result block: 0.02 mg/kg

Query block: Now give it for Cc1nc2n(c(=O)c1CCN1CC[C@H]3Nc4ccc(F)cc4[C@@H]3C1)CCCC2 (relative stereo) too.
Result block: 0.02 mg/kg

Query block: Now give it for Cc1nc2scc(C)n2c(=O)c1CCN1CC[C@H]2Nc3ccc(Cl)cc3[C@@H]2C1 (relative stereo) too.
Result block: 0.005 mg/kg

Query block: Now give it for Cc1nc2ccccn2c(=O)c1CCN1CC[C@@H]2[C@@H](C1)c1ccccc1N2C (relative stereo) too.
Result block: ≤ 0.63 mg/kg

Entry source: patent US6057325A
